tgt: PAS of Electrophorus electricus AChE (EeAChE) (Electrophorus electricus)
Construct: purchased Sigma-Aldrich type VI-S; host or cells: electric eel tissue
Sequence (O42275 24-633): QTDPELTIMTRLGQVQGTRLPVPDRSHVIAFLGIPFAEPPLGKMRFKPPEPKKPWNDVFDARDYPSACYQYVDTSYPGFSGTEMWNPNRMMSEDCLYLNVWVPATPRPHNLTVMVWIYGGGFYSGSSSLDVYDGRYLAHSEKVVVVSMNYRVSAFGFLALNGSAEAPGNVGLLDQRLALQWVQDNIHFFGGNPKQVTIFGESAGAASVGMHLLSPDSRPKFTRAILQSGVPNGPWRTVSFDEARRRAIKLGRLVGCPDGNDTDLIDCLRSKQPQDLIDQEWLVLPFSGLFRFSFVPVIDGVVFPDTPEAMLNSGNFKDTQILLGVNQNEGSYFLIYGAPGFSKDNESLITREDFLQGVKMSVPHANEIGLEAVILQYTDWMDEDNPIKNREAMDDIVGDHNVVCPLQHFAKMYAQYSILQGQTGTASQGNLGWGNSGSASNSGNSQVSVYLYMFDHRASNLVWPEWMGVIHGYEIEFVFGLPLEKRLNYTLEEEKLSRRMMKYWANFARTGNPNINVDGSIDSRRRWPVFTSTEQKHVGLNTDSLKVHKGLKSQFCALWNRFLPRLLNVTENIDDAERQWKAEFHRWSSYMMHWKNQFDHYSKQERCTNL
Format: binding
condition_info: 20 µM compound concentration
measured_attribute: Propidium displacement, %

Known Propidium displacement, % results, listed for orientation:
compound	measured_attribute	endpoint_value
O=C(NCCCCCCNc1c2c(nc3c1CCC3)CCCC2)c1ccccc1O [7b]	Propidium displacement, %	11.6 ± 0.9%
O=C(NCCCCCCCCNc1c2c(nc3c1CCC3)CCCC2)c1ccccc1O [7c]	Propidium displacement, %	11.8 ± 0.8%

Switching to the query record.
Record Oc1ccccc1C=NCCCCCCCCNc1c2c(nc3c1CCC3)CCCC2 [9c] . Reported Propidium displacement, %: 11.6 ± 0.9%

All values here come from paper PMC11650361.
